Please go through the items and note down their Brain IL12 Pro (Protection).
# Tested on: interleukin-12 (IL-12) from brain homogenate
# Procedure Text: Hangover study, IL-12 from brain homogenate, alcohol 1 day
# Assay type: in vivo, Wistar albino rats
# Parameters: concentration or dose not given beside the values
# Assay Conditions: 1 Day alcohol
Where a SMILES comes first, the peptide text is derived from it.
Numbers only, in %.

# Compound, Value Units, Brain IL12 Pro (Protection)
rows = [
    ("C[C@H](N)C(=O)N[C@@H](CCC(N)=O)C(=O)O [0.5 DP, L-Ala-L-Gln] (H-Ala-Gln-OH)", "%", 3.69),
]

Hi there! I need Brain IL12 Pro (Protection) for each item below, if you can.
1. OC[C@@H](O)[C@@H](O)[C@H](O)[C@H](O)CO [1.2 Man, D-Mannitol]
2. C/C=C/C=C/C(=O)[O-].[K+] [0.1 KS, Potassium Sorbate]
3. C[C@H](N)C(=O)N[C@@H](CCC(N)=O)C(=O)O [0.75 DP, L-Ala-L-Gln] (H-Ala-Gln-OH)

1: 12.28; 2: 0.24; 3: 7.14
